Origin of measurements: patent US9371374

Measured Reactivity (OD492) values are reported for all entries that follow.
Target: biotinylated HCV core peptide 141-161 (Peptide 2) (HCV-1)
Assay: EIA, captured mAb
Dear colleague, please return just the value in OD, with no unit written.

[[record]]
binder = "HCV 208A-1064 (antibody, V domains shown) VH: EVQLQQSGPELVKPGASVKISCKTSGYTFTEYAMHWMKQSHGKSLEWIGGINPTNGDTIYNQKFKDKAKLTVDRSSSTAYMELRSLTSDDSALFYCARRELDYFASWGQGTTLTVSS VL: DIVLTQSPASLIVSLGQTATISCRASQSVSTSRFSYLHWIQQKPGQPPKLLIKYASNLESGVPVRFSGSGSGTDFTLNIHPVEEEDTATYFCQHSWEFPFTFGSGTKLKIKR"
val = 3.5

[[record]]
binder = "HCV 208B-1094 (antibody, V domains shown) VH: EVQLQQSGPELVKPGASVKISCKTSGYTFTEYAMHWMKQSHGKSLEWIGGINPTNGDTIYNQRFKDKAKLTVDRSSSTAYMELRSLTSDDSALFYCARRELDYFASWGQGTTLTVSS VL: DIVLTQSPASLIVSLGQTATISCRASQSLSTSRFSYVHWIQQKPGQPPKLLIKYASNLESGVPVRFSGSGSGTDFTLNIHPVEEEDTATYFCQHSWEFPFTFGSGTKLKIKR"
val = 3.28


Lab note: next binder to report on.
According to the records, this binder HCV 208A-134 (antibody, V domains shown) VH: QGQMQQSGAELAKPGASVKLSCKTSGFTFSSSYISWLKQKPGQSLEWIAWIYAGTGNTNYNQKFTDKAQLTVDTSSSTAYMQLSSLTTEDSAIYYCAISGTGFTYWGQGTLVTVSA VL: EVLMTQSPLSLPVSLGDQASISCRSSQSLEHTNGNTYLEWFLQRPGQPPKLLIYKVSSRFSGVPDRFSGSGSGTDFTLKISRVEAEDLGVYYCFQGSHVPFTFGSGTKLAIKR displays Reactivity (OD492) of 0.08
